Biological target: Amine oxidase [flavin-containing] B (Homo sapiens)
Sequence (P27338 whole entry): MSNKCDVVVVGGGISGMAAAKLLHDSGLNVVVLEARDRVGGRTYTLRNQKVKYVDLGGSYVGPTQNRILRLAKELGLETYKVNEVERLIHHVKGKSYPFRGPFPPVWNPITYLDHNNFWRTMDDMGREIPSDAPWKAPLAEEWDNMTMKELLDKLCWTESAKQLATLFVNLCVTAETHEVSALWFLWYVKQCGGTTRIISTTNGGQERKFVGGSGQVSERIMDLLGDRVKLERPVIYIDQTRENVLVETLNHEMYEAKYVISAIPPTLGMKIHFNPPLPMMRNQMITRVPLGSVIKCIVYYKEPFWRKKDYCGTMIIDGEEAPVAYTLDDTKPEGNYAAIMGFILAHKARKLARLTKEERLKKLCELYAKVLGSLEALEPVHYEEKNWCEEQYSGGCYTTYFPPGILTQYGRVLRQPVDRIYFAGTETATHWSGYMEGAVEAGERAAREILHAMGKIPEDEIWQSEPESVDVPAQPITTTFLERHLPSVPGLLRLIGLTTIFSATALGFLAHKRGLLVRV
Assay: Inhibition of recombinant human MAO-B expressed in baculovirus infected BTI insect cells preincubated for 30 mins followed by addition of p-tyramine as substrate measured over 45 mins by Amplex Red MAO assay
quantity.kind: IC50 (µM)

Sample answers from the record:
line.notation | unit.tag | IC50
Cn1c(=O)c2c(nc3n2CCN(c2ccc(Br)cc2)C3)n(C)c1=O | µM | 0.132
Cn1c(=O)c2c(nc3n2CCN(CCc2c(Cl)cccc2Cl)C3)n(C)c1=O | µM | 0.932
Cn1c(=O)c2c(nc3n2CCN(C2Cc4ccccc4C2)C3)n(C)c1=O | µM | 7.59

[I] Cc1sc(-c2ccc(C(F)(F)F)cc2)nc1CN1CCn2c(nc3c2c(=O)n(C)c(=O)n3C)C1
[II] Cn1c(=O)c2c(nc3n2CCN([C@@H]2CCCc4ccccc42)C3)n(C)c1=O
Which gives the smaller IC50 number: I or II ? Write down the label attached to your selection.
II
(II: 0.21 µM, I: 10 µM)

----------
Reported pKi by item:
Molecular target: Adenosine receptor A2b (Homo sapiens, UniProt P29275)
Sequence (P29275 whole entry): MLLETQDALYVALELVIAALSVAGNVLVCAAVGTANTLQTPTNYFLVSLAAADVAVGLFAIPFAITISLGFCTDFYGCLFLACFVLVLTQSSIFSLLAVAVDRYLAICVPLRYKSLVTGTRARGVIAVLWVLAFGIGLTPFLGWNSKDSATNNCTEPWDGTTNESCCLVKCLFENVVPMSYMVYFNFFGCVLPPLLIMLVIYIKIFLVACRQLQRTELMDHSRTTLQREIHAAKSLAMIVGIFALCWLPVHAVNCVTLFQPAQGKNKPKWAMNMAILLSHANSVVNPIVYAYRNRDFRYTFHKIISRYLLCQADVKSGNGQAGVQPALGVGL
Assay: Displacement of [3H]PSB-603 from human A2B receptor expressed in CHO cell membrane
Format: cell membranes
pKi: −log10 of the molar value.

molecule | quantity.kind | value.observed
Cn1c(=O)c2c(nc3n2CCN(CCc2c(Cl)cccc2Cl)C3)n(C)c1=O | pKi | < 6.00
Cn1c(=O)c2c(nc3n2CCN(c2ccccc2)C3)n(C)c1=O | pKi | < 6.00
Cn1c(=O)c2c(nc3n2CCN(Cc2cn(-c4ccc(Cl)cc4)nn2)C3)n(C)c1=O | pKi | < 6.00
Cn1c(=O)c2c(nc3n2CCN(CCOc2ccc(Cl)c(Cl)c2)C3)n(C)c1=O | pKi | < 6.00
Cn1c(=O)c2c(nc3n2CCN(CCOc2ccccc2)C3)n(C)c1=O | pKi | < 6.52

Quote pKi reported for Cn1c(=O)c2c(nc3n2CCN(c2cccc4ccccc24)C3)n(C)c1=O please.
< 6.00

Quote pKi reported for C#CCN1CCn2c(nc3c2c(=O)n(C)c(=O)n3C)C1 please.
< 6.52

Quote pKi reported for Cn1c(=O)c2c(nc3n2CCN(Cc2csc(-c4ccc(C(F)(F)F)cc4)n2)C3)n(C)c1=O please.
< 6.00

Quote pKi reported for Cn1c(=O)c2c(nc3n2CCN(c2ccc(Br)cc2)C3)n(C)c1=O please.
< 6.00

Reference for the values: ChEMBL document CHEMBL4428125
